IC50 listing for selected molecules.
- System: L02
- TEST PROTOCOL: Cytotoxicity against human HL7702 cells assessed as inhibition of cell proliferation measured after 48 hrs by MTT assay
- Assay type: cell-based
- CONDITION NOTES: L02, 48 h
Note: state the figure and append the unit.

Inquiry: Give L02 IC50 for `CC(C)[C@]12O[C@H]1[C@@H]1O[C@]13[C@]1(O[C@H]1C[C@H]1C4=C(CC[C@@]13C)C(=O)OC4)[C@@H]2OC(=O)CCCCCCBr`
Reply text: 75 nM

Inquiry: # iterate: `CC(C)[C@]12O[C@H]1[C@@H]1O[C@]13[C@]1(O[C@H]1C[C@H]1C4=C(CC[C@@]13C)C(=O)OC4)[C@@H]2OC(=O)CCCCCCC[P+](c1ccccc1)(c1ccccc1)c1ccccc1`
Reply text: 127 nM

More entries:
Inquiry: Give L02 IC50 for `CC(C)[C@]12O[C@H]1[C@@H]1O[C@]13[C@]1(O[C@H]1C[C@H]1C4=C(CC[C@@]13C)C(=O)OC4)[C@@H]2OC(=O)CCCCC[P+](c1ccccc1)(c1ccccc1)c1ccccc1.[Br-]`
Reply text: 334 nM

Inquiry: Input `CCCCC(=O)O[C@@H]1[C@@]2(C(C)C)O[C@H]2[C@@H]2O[C@]23[C@]12O[C@H]2C[C@H]1C2=C(CC[C@@]13C)C(=O)OC2`
Reply text: 317 nM

Inquiry: What about `CC(C)[C@]12O[C@H]1[C@@H]1O[C@]13[C@]1(O[C@H]1C[C@H]1C4=C(CC[C@@]13C)C(=O)OC4)[C@@H]2OC(=O)CCCCBr` ?
Reply text: 84 nM

Inquiry: Repeat with CC(C)[C@]12O[C@H]1[C@@H]1O[C@]13[C@]1(O[C@H]1C[C@H]1C4=C(CC[C@@]13C)C(=O)OC4)[C@@H]2O [TRIPTOLIDE]
Reply text: 21 nM

Just for reference, ChEMBL document CHEMBL4840355 is where these values come from.
